Entries and their %Inh
Test system: CDK9
Conditions: concentration: 1 μM,replicates: in singlicate; n = 1;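 further: KINOMEscan kinase panel screen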
Response body: numeric value in %, unit text excluded.

Worked examples follow.
COc1ccc(C[C@@H](CN)NC(=O)c2cc(Br)c(-c3ccnc4[nH]ccc34)s2)cc1.Cl.Cl [GSK1389063]    37
CN(C)CCOc1ccc(-c2cc(-c3c[nH]nc3-c3ccccn3)ccn2)cc1 [GW835314]    0
CCN(CC)CCCCNc1ncc2cc(-c3c(Cl)cccc3Cl)c(NC(=O)NC(C)(C)C)nc2n1    0
Cc1ccc(-n2nc(C(C)(C)C)cc2NC(=O)Nc2ccc(OCCN3CCOCC3)c3ccccc23)cc1 [GW839464]    0
CC(C)N1C(=O)Cc2cc(Nc3ncc(C(F)(F)F)c(NCc4cccc(S(C)(=O)=O)c4)n3)ccc21    19

// next entry
Incoming: Using the record for Cl.Cl.Nc1nc(-c2ccc3c(N)n[nH]c3c2)cc(N2CCCC(NC(=O)c3ccccc3)C2)n1 (stereo not drawn) [GSK2286775] , report its %Inh.
Outgoing: 0

###

Tested on: DAPK2
Conditions: concentration: 1 μM,replicates: in singlicate; n = 1
Simple rule here: %Inh less than 7% is true (1), otherwise false (0).

Sample answers from the record:
Cl.Cl.Nc1nc(-c2ccc3c(N)n[nH]c3c2)cc(N2CCCC(NC(=O)c3ccccc3)C2)n1 (centres unmarked)    true (1)
CN(C)CC(O)COc1ccc(Nc2nccc(-c3cnn4nc(N5CCOCC5)ccc34)n2)cc1 (centres unmarked)    false (0)

Incoming: Determine whether this compound shows %Inh lower than 7% (ties excluded): CCn1c(-c2nonc2N)nc2c(C#CC(C)(C)O)nc(OCCN)cc21.Cl.Cl
Outgoing: true (1)

Incoming: Hello, is %Inh of the following compound strictly smaller than 7%? Cc1cc2cn[nH]c2cc1-c1cccc2c(N)c(C(N)=O)nnc12
Outgoing: true (1)

Incoming: Hi there! Is %Inh for Nc1nc(Nc2ccccc2)cc(-c2ccc3c(N)n[nH]c3c2)n1 below 7%, do you know?
Outgoing: false (0)

###

Tested on: PRKCQ
Conditions: concentration: 1 μM,replicates: in singlicate; n = 1
READOUT NAME: %Inh (%)
// note: answer is a bare numeric in %

Examples with answers:
CCN(CC)CCOc1ccc(Nc2ncc3cc(-c4c(Cl)cccc4Cl)c(=O)n(C)c3n2)cc1 [SB-601273]    27
NC(=O)c1cc(-c2ccccc2)cc2c(C3CCNCC3)c[nH]c12 [GSK301362]    64
C[C@H]1Oc2cc(cnc2N)-c2c(nn(C)c2C#N)CN(C)C(=O)c2ccc(F)cc21    12

Note: attention shifts to another entry.
Incoming: Entry under review: COc1ccc(C[C@@H](CN)NC(=O)c2cc(Br)c(-c3ccnc4[nH]ccc34)s2)cc1.Cl.Cl [GSK1389063] . Reported %Inh?
Outgoing: 92.4

###

Tested on: DYRK1B
Conditions: concentration: 1 μM,replicates: in singlicate; n = 1
The reader will find reported %Inh values listed item by item below.

Solved cases (2 shown):
C[C@@H](Oc1cc(-c2cnn(C3CCNCC3)c2)cnc1N)c1c(Cl)ccc(F)c1Cl    0%
C=CC(=O)Nc1cc2c(Nc3ccc(F)c(Cl)c3)ncnc2cc1OCCCN1CCOCC1    23%

In the following, a different molecule is considered.
Incoming: Request: %Inh, test system DYRK1B, entry Cc1cc(C(=O)Nc2ccc(Oc3ccc4nc(NC(=O)C5CC5)cn4n3)cc2)nn1-c1ccccc1
Outgoing: 0%
